// reported IC50 for each item listed
TESTED ON: full-length human PKCι (Homo sapiens)
Construct: Recombinant, full-length human PKCι expressed in Sf21 insect cells is also commercially available
TEST DETAILS: PKCι IC50 IMAP assay, full-length PKCι at 150 μM ATP
CONDITION DETAILS: read-out: IC50 in IMAP assay against full length PKCi at 150 μM ATP

Here COc1cncc2nc(-c3ccnc(Nc4ccccc4)c3)nc(N3CCC(O)C(O)C3)c12 (single isomer, unassigned) [Example 463] was tested on full-length human PKCι (Homo sapiens), and its IC50 came to 1000 to 10000 nM

full-length human PKCι (Homo sapiens) assay, molecule CC(Nc1cc(-c2nc(N3CCNCC3)c3c(C4CC4)cncc3n2)ccn1)c1cnn(C)c1 (stereo not shown) [Example 730] , recorded IC50 = < 100 nM

full-length human PKCι (Homo sapiens) data for Fc1cccc(F)c1Nc1cc(-c2nc(N3CCNC4(CC4)C3)c3c(C4CC4)cncc3n2)ccn1 [Example 829] ; its IC50: < 100 nM

Item FC(F)(F)COc1ccc(Nc2cc(-c3nc(N4CCNCC4)c4c(C5CC5)cncc4n3)ccn2)cc1 [Example 2150] was tested on full-length human PKCι (Homo sapiens); the reported IC50 is < 100 nM

// molecule COc1cncc2nc(-c3ccnc(NC(=O)Cc4cccnc4)c3)nc(N[C@@H]3CCNC3)c12 [Example 396] , assay full-length human PKCι (Homo sapiens), IC50 value: < 100 nM

With full-length human PKCι (Homo sapiens) as the test system, FC(F)(F)c1nc2cc(Nc3cc(-c4nc(N5CCNCC5)c5c(C6CC6)cncc5n4)ccn3)ccc2o1 [Example 2133] showed IC50 of < 100 nM

The measured IC50 that COc1cncc2nc(-c3ccncc3)nc(N[C@@H]3CCNC3)c12 [Example 2] showed for full-length human PKCι (Homo sapiens) is 100 to 1000 nM

IC50 value, target or system full-length human PKCι (Homo sapiens), for C[C@H]1CN(c2nc(-c3ccnc(Nc4ncccc4F)c3)nc3cncc(C4CC4)c23)CCN1 [Example 800] : < 100 nM

// returns IC50 for COc1cncc2nc(-c3ccncc3)nc(N3CCNC(CC#N)C3)c12 (stereo not shown) [Example 58] with full-length human PKCι (Homo sapiens); value = 100 to 1000 nM

Record Clc1cc2c(N3CCNCC3)nc(-c3ccncc3)nc2cn1 [Example 13] / full-length human PKCι (Homo sapiens), IC50 recorded as 1000 to 10000 nM

Param item: COc1cncc2nc(-c3ccncc3)nc(N3CCC(N)(C(=O)N[C@@H](CCO)c4ccc(Cl)cc4)CC3)c12 [Example 154] ; param system: full-length human PKCι (Homo sapiens); output IC50: 100 to 1000 nM

Entry Fc1ccc(F)c(Nc2cc(-c3nc(N4CCNCC4)c4c(C5CC5)cncc4n3)ccn2)c1 [Example 521] , full-length human PKCι (Homo sapiens) data, IC50 value: < 100 nM

* * *

TESTED ON: full-length human PKCι (Homo sapiens)
Construct: Recombinant, full-length human PKCι expressed in Sf21 insect cells is also commercially available
Sequence (P41743 1-596): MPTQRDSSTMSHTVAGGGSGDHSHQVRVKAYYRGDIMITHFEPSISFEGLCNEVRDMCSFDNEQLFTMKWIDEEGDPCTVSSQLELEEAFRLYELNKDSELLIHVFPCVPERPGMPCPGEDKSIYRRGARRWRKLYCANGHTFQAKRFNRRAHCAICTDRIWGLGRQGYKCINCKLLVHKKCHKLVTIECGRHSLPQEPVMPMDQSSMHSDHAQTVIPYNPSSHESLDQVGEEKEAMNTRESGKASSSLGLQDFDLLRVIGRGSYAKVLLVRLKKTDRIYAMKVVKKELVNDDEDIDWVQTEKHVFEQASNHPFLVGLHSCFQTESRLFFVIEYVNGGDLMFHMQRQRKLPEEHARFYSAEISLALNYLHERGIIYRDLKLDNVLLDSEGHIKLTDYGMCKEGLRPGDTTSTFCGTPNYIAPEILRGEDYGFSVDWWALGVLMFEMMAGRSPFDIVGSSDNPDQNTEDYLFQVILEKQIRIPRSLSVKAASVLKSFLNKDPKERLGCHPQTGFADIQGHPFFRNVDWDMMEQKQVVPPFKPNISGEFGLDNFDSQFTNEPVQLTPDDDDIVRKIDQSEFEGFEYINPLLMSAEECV
TEST DETAILS: PKCι IC50 IMAP assay, full-length PKCι at 150 μM ATP
CONDITION DETAILS: read-out: IC50 in IMAP assay against full length PKCi at 150 μM ATP
QUANTITY MEASURED: IC50

Study these solved cases before continuing.
c1cc(Nc2cc(-c3nc(N4CCCC4)c4c(C5CC5)cncc4n3)ccn2)cc(N2CCNCC2)c1 [Example 766]    100 to 1000 nM
c1ccn2nc(Nc3cc(-c4nc(N5CCNCC5)c5c(C6CC6)cncc5n4)ccn3)nc2c1 [Example 743]    < 100 nM
Fc1ccc(Nc2cc(-c3nc(N4CCNCC4)c4c(C5CC5)cncc4n3)ccn2)cn1 [Example 672]    < 100 nM
O[C@@H]1CCN(c2nc(-c3ccnc(Nc4ccccc4)c3)nc3cncc(C4CC4)c23)C[C@H]1O (racemic) [Example 676]    100 to 1000 nM
COc1cc(F)c(Nc2cc(-c3nc(N4CCNCC4)c4c(C5CC5)cncc4n3)ccn2)c(F)c1 [Example 590]    < 100 nM

Item CN1CCN(c2cccc(Nc3cc(-c4nc(N5CCC[C@@H](O)C5)c5c(C6CC6)cncc5n4)ccn3)n2)CC1 [Example 781] was tested on full-length human PKCι (Homo sapiens); the reported IC50 is 100 to 1000 nM

Tested on full-length human PKCι (Homo sapiens): COc1cncc2nc(-c3ccnc(Nc4cccnc4)c3)nc(N[C@@H]3CCNC3)c12 [Example 377] . Observed IC50: 100 to 1000 nM

* * *

TESTED ON: full-length human PKCι (Homo sapiens, UniProt P41743)
Construct: Recombinant, full-length human PKCι expressed in Sf21 insect cells is also commercially available
TEST DETAILS: PKCι IC50 IMAP assay, full-length PKCι at 150 μM ATP
CONDITION DETAILS: read-out: IC50 in IMAP assay against full length PKCi at 150 μM ATP
QUANTITY MEASURED: IC50

Consider the following illustrative entries.
COc1cncc2nc(-c3ccnc(Nc4cc(C#N)ccn4)c3)nc(N3CCC[C@H](O)C3)c12    1000 to 10000 nM
COc1cncc2nc(-c3ccnc(Nc4ccccc4)c3)nc(N3CCC(C)(O)CC3)c12    1000 to 10000 nM
C[C@@H](Nc1cc(-c2nc(N3CCNCC3)c3c(C4CC4)cncc3n2)ccn1)C1CCCCC1    < 100 nM

// sample CN1CCN(c2cccc(Nc3cc(-c4nc(N5CCC(O)C(O)C5)c5c(C6CC6)cncc5n4)ccn3)c2)CC1 (single isomer, unassigned) [Example 754] , its IC50 was < 100 nM

Data point: `CC(=O)Nc1cc(-c2nc(N3CCNCC3)c3c(Cl)cncc3n2)ccn1` ; IC50 = 100 to 1000 nM

* * *

TESTED ON: full-length human PKCι (Homo sapiens)
Construct: Recombinant, full-length human PKCι expressed in Sf21 insect cells is also commercially available
TEST DETAILS: PKCι IC50 IMAP assay, full-length PKCι at 150 μM ATP
CONDITION DETAILS: read-out: IC50 in IMAP assay against full length PKCi at 150 μM ATP
QUANTITY MEASURED: IC50

Reference set (3 entries):
FC[C@H]1CN(c2nc(-c3ccnc(Nc4ccccc4)c3)nc3cncc(C4CC4)c23)CCN1 [Example 552]    < 100 nM
COc1cncc2nc(-c3ccnc(Nc4cc(C#N)ccn4)c3)nc(N3CCOCC3)c12 [Example 388]    10000 to 40000 nM
COc1cncc2nc(-c3ccnc(Nc4ccc(C(F)(F)F)cc4)c3)nc(N3CCNCC3)c12 [Example 207]    100 to 1000 nM

Test item N[C@H](CNc1nc(-c2ccncc2)nc2c(-c3ccc4occc4c3)nccc12)Cc1ccccc1 [Example 97] ; full-length human PKCι (Homo sapiens); reported IC50 was 100 to 1000 nM

Form field, IC50 with full-length human PKCι (Homo sapiens), item Fc1ccc(Nc2cc(-c3nc(N4CCCNCC4)c4c(C5CC5)cncc4n3)ccn2)cc1 [Example 699] : < 100 nM

Let me check: N[C@H]1CCC[C@H]1C(=O)Nc1cc(-c2nc(N3CCNCC3)c3c(C4CC4)cncc3n2)ccn1 [Example 561] , system full-length human PKCι (Homo sapiens), measured IC50 is < 100 nM

Record Cc1ccc(F)cc1Nc1cc(-c2nc(N3CCNCC3)c3c(C4CC4)cncc3n2)ccn1 [Example 523] ; system full-length human PKCι (Homo sapiens); IC50 = < 100 nM

The recorded IC50 with full-length human PKCι (Homo sapiens) for Fc1cnc(Nc2cc(-c3nc(N4CCNCC4)c4c(C5CC5)cnc(Cl)c4n3)ccn2)c(F)c1 [Example 2148] was < 100 nM

Values compiled from patent US9914730B2.
